- SYSTEM_UNDER_TEST: human FPR1 (Homo sapiens (Human), UniProt P21462)
- Sequence (P21462 whole entry): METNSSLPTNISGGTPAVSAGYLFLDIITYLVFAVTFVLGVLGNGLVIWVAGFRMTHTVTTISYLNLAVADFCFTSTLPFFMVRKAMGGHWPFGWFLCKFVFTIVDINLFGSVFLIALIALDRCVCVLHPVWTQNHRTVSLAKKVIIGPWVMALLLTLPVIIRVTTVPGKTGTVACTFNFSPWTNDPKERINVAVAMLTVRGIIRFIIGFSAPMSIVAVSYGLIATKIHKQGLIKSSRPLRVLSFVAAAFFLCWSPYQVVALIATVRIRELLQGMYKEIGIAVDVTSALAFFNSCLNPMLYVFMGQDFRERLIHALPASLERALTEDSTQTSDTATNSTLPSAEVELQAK
- ASSAY_PROCEDURE: FPR1 cyclic adenosine monophosphate (cAMP) assay
- CONDITIONS: CHO cells overexpressing human FPR1; forskolin 10 µM; inhibition of cAMP production; read-out: hFPR1 cAMP EC50
READOUT_TYPE: EC50

For orientation, consider the following solved cases.
{"COMPOUND": "COc1cc(N2C[C@@H]3C[C@H]2CO3)nc(N2C(=O)[C@@H](NC(=O)c3ccc(OC(F)(F)F)cc3)[C@H](c3c(F)cc(OC)cc3F)[C@@H]2C)c1", "READOUT_TYPE": "EC50", "OBSERVED_VALUE": "440 nM"}
{"COMPOUND": "COc1cc(F)c([C@@H]2CN(c3nccc(N4CCN(C)CC4)c3C(F)(F)F)C(=O)[C@H]2NC(=O)c2ccc(Cl)cc2)c(F)c1", "READOUT_TYPE": "EC50", "OBSERVED_VALUE": "4800 nM"}
{"COMPOUND": "COCCn1ccnc1N1C[C@@H](c2c(F)cc(OC)cc2F)[C@H](NC(=O)c2ccc(OC(F)(F)F)cc2)C1=O", "READOUT_TYPE": "EC50", "OBSERVED_VALUE": "700 nM"}
{"COMPOUND": "COCCn1cccc(N2C[C@@H](c3ccc(OC)cc3)[C@H](NC(=O)c3ccc(OC(F)F)cc3)C2=O)c1=O", "READOUT_TYPE": "EC50", "OBSERVED_VALUE": "13 nM"}

Assay human FPR1 (Homo sapiens (Human), UniProt P21462), sample COc1cc(F)c([C@@H]2CN(c3cc(C#N)cn(C)c3=O)C(=O)[C@H]2NC(=O)c2ccc(OC(F)F)cc2)c(F)c1 , EC50 read: 3700 nM

Assay human FPR1 (Homo sapiens (Human), UniProt P21462), sample COc1cc(F)c([C@@H]2CN(c3cncn(C4CCN(C)C4)c3=O)C(=O)[C@H]2NC(=O)c2ccc(Cl)cc2)c(F)c1 (stereo partly drawn) [Example 713] , EC50 read: > 5000 nM

Assay human FPR1 (Homo sapiens (Human), UniProt P21462), sample COc1cc(F)c([C@@H]2CN(c3nccn(C4CC4)c3=O)C(=O)[C@H]2NC(=O)c2ccc(Cl)cc2)c(F)c1 , EC50 read: 1800 nM

Assay human FPR1 (Homo sapiens (Human), UniProt P21462), sample CCn1c2c(cc(N3C[C@@H](c4c(F)cc(OC)cc4F)[C@H](NC(=O)c4ccc(OC(F)F)cc4)C3=O)c1=O)CCCC2 , EC50 read: 1 nM

Assay human FPR1 (Homo sapiens (Human), UniProt P21462), sample COc1ccc([C@@H]2CN(c3cccn(CC(O)C(F)(F)F)c3=O)C(=O)[C@H]2NC(=O)c2ccc(OC(F)F)cc2)c(F)c1 (stereo partly drawn) , EC50 read: 13 nM

Where do these numbers come from? They come from patent US20230348426A1.
